target: HLA-A*29:02; test: IEDB peptide-MHC binding, purified MHC/competitive/fluorescence; filed as Kd, often an IC50 or EC50 that approximates it; bounds were set here for any values at or beyond the usual limits of such assays; conditions: source organism: Entamoeba histolytica HM-1:IMSS
pKd: −log10 of the molar value.
quantityKind: pKd

> print(dat)
   residuestring  quantitykind  assayresult
1      NPAACSYMV           pKd         6.91

---

target: HLA-A*01:01; experiment: IEDB peptide-MHC binding, purified MHC/competitive/fluorescence; filed as Kd, often an IC50 or EC50 that approximates it; bounds were set here for any values at or beyond the usual limits of such assays; conditions: source organism: Bacillus cereus G9241
pKd: −log10 of the molar value.
quantityKind: pKd

> print(dat)
   residuestring  assayresult
1      LTMDREMLY         8.29
